Record form. Attribute: pIC50. Fill in for each entry.
# TARGET_OR_SYSTEM: Dimer of Gag-Pol polyprotein [489-587] (Human immunodeficiency virus 1, UniProt P12497)
# Construct: 489-587
# ASSAY_NOTES: Protease Inhibition Assay
# TEST_CONDITIONS: pH 5.5; 37 °C
Numbers only, as −log10 of the molar value.

Some solved cases for reference:
[[record]]
molecule = "CC(C)[C@H](NC(=O)c1ccc2ccccc2n1)C(=O)N[C@@H](Cc1ccccc1)[C@H](O)CN1CC[C@@H](OCc2ccncc2)C[C@H]1C(=O)NC(C)(C)C"
value_measured = 8.40

[[record]]
molecule = "CC(C)CN(C[C@@H](O)[C@H](Cc1ccccc1)NC(=O)O[C@H]1CCOC1)S(=O)(=O)c1ccc(N)cc1 [VX-478]"
value_measured = 8.59


Ask: Reported pIC50, molecule `CC(C)(C)NC(=O)[C@@H]1C[C@H](OCc2ccncc2)CCN1C[C@@H](O)[C@H](Cc1ccccc1)NC(=O)O[C@H]1CCOC1` : ____
Reply: 6.59
